B1: DLC1 (parent)
chain: AEVVKIRDSFSNQNTETKDTKSR

variants of: B1; assay: protein stability index of a GFP-peptide fusion (GPS, HEK-293T) (PSI 1-6); higher = more stable; settings: c terminus: native;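 also: lentivirally expressed fusions sorted by FACS into six bins by GFP to DsRed ratio, PSI derived from sequencing read proportions per bin multiplied by bin number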
Each record here notes measured protein stability index.
Could you keep your reply to the number by itself?

Below, each entry is followed by its recorded protein stability index result.
So what's the measured protein stability index for this one? `N12M`
2.5

Name the recorded protein stability index for `Q13V` .
3.62

Given `S11V` , state its recorded protein stability index.
2.35

Value lookup for protein stability index; key = `S22H`
3.48

Fill in: protein stability index of `R23V` is ___
5.51

Others:
Return reported protein stability index; argument: `S9E`
3.48

I am curious: what protein stability index value has been reported for `N14C` ?
2.16

I'd like to know its protein stability index. The variant in question is `K18C`
2.84

Query: protein stability index; subject: `K18L`
3.07

May I ask what protein stability index has been recorded for `D8C` ?
1.46
